Entry source: ChEMBL document CHEMBL3870363

- protocol notes: Equilibrium solubility of the compound in Britton-Robinson buffer stirred for 6 hrs followed by sedimentation for 18 hrs by saturation shake flask based UV-vis spectroscopy
- Type: physicochemical
measurement label: solubility thermodynamic at 6 h (µg/mL)
Note: unit µg/mL is implicit; provide only the numeric part.

Summary for this molecule, `CN1C(C(=O)Nc2ccccn2)=C(O)c2ccccc2S1(=O)=O` : solubility thermodynamic at 6 h is 6.36

* * *

Record form. Attribute: Ki. Fill in for each entry.
- tested system: Macrophage migration inhibitory factor (Homo sapiens)
- Sequence (P14174 whole entry): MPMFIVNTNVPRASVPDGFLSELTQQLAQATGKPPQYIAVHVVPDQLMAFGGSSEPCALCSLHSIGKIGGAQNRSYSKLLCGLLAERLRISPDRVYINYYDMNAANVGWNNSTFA
- protocol notes: Inhibition of recombinant human MIF tautomerase activity expressed in Escherichia coli assessed as borate-enol complex formation using 4-hydroxyphenyl pyruvic acid as substrate preincubated for 20 mins followed by substrate addition measured for 175 sec by spectrophotometric analysis
Please state the figure in nM; there is no need to write the unit.

Please fill in: Ki reported for `COCCOc1cccc(Oc2cccc3nc(-c4cn(-c5ccc(O)c(F)c5)nn4)ccc23)c1` = 24

Consider `O=C(O)COc1ccc2nc(-c3cn(-c4ccccc4)nn3)ccc2c1` . Its measured Ki is 1370

`O=C(O)COCCOc1ccc2nc(-c3cn(-c4ccc(O)c(F)c4)nn3)ccc2c1` has a reported Ki of 37

// Ki lookup, molecule = Oc1ccc(-n2cc(-c3ccc4cc(OCC5CCCCO5)ccc4n3)nn2)cc1 (stereo not given) , result: 270

The value of Ki measured for the molecule `COCCOCCOc1ccc2nc(-c3cn(-c4ccc(O)cc4)nn3)ccc2c1` turned out to be 147

* * *

Record form. Attribute: solubility thermodynamic at 48 h. Fill in for each entry.
- protocol notes: Aqueous solubility of the compound in Britton-Robinson buffer at pH 6.5 measured after 2 days by saturation shake flask based UV-vis spectroscopy
- Assay type: physicochemical
Write down the numeric answer in µg/mL and omit the unit.

Input `O=C(O)COCCOc1ccc2nc(-c3cn(-c4ccc(O)c(F)c4)nn3)ccc2c1` . Output solubility thermodynamic at 48 h: 867

Record `CN1C(C(=O)Nc2ccccn2)=C(O)c2ccccc2S1(=O)=O` , field solubility thermodynamic at 48 h: 6.5

Reported solubility thermodynamic at 48 h for `Oc1ccc(-n2cc(-c3ccc4ccccc4n3)nn2)cc1` was 2.2

Recorded solubility thermodynamic at 48 h (molecule `O=C(O)c1cccc(Oc2cccc3nc(-c4cn(-c5ccc(O)c(F)c5)nn4)ccc23)c1` ): 47.2

Documented solubility thermodynamic at 48 h of `OCCOc1ccc2nc(-c3cn(-c4ccc(O)cc4)nn3)ccc2c1` : 2.6

solubility thermodynamic at 48 h reported for this molecule `O=C(O)COc1ccc2nc(-c3cn(-c4ccccc4)nn3)ccc2c1` : 1050

Recorded solubility thermodynamic at 48 h (molecule `O=C(O)COc1ccc2nc(-c3cn(-c4ccc(O)cc4)nn3)ccc2c1` ): 365

Briefly, solubility thermodynamic at 48 h measured for `O=C(O)CCCOc1ccc2nc(-c3cn(-c4ccc(O)c(F)c4)nn3)ccc2c1` : 19.2

The measured solubility thermodynamic at 48 h associated with Oc1ccc(-n2cc(-c3ccc4cc(OCC5CCCCO5)ccc4n3)nn2)cc1 (configuration not stated) reads 3.4

Item: `NCCOCCOc1ccc2nc(-c3cn(-c4ccc(O)c(F)c4)nn3)ccc2c1.O=C(O)C(F)(F)F` | solubility thermodynamic at 48 h: 9.1

Sure, the documented solubility thermodynamic at 48 h for `Oc1ccc(-n2cc(-c3ccc4cc(OCCOCCN5CCOCC5)ccc4n3)nn2)cc1F` is 27.2

Sample `COCCOc1cccc(Oc2cccc3nc(-c4cn(-c5ccc(O)c(F)c5)nn4)ccc23)c1` ; solubility thermodynamic at 48 h observed: 6.1

The recorded solubility thermodynamic at 48 h for entry `COCCOCCOc1ccc2nc(-c3cn(-c4ccc(O)cc4)nn3)ccc2c1` equals 2.4

So for `O=C(O)COc1ccc2nc(-c3cn(-c4ccc(O)c(F)c4)nn3)ccc2c1` , the logged solubility thermodynamic at 48 h turned out to be 37

So for `NCCOCCOc1ccc2nc(-c3cn(-c4ccc(O)cc4)nn3)ccc2c1.O=C(O)C(F)(F)F` , the logged solubility thermodynamic at 48 h turned out to be 13.9

# solubility thermodynamic at 48 h (molecule: `NCCOc1ccc2nc(-c3cn(-c4ccc(O)cc4)nn3)ccc2c1.O=C(O)C(F)(F)F` ) is 3.7
